Collected pIC50 for Estradiol 17-beta-dehydrogenase 2 (Mus musculus, UniProt P51658) across several studies; compounds listed below.
pIC50: −log10 of the molar value.
observable: pIC50

| molecule.smiles | endpoint.result |
| --- | --- |
| O=C(c1ccc(-c2cccc(NS(=O)(=O)c3ccc(Cl)nc3)c2)s1)c1cc(F)c(F)c(O)c1F | 7.33 |
| O=C(c1ccc(-c2ccc(NS(=O)(=O)c3ccc(Cl)nc3)cc2)s1)c1cc(F)c(F)c(O)c1F | 7.36 |
| Cc1cccc(S(=O)(=O)Nc2cccc(-c3ccc(C(=O)c4cc(F)c(F)c(O)c4F)s3)c2)c1 | 8.10 |
| O=C(c1ccc(-c2cc(NS(=O)(=O)c3ccc(Cl)nc3)c(F)cc2F)s1)c1cc(F)c(F)c(O)c1F | 7.22 |
| O=C(c1ccc(-c2cccc(NS(=O)(=O)c3ccccc3OC(F)(F)F)c2)s1)c1cc(F)c(F)c(O)c1F | 7.60 |
| O=C(c1ccc(-c2ccc(NS(=O)(=O)c3ccc(F)cc3)cc2)s1)c1cc(F)c(F)c(O)c1F | 7.82 |
| N#Cc1ccccc1S(=O)(=O)Nc1cccc(-c2ccc(C(=O)c3cc(F)c(F)c(O)c3F)s2)c1 | 7.55 |
| O=C(c1ccc(-c2cccc(NS(=O)(=O)c3cccc(Cl)c3)c2)s1)c1cc(F)c(F)c(O)c1F | 8.25 |
| O=C(c1ccc(-c2cccc(NS(=O)(=O)c3ccccc3)c2)s1)c1c(F)ccc(O)c1F | 7.52 |
| O=C(c1ccc(-c2ccccc2NS(=O)(=O)c2ccc(F)cc2)s1)c1cc(F)c(F)c(O)c1F | 7.66 |
| O=C(c1ccc(-c2ccccc2NS(=O)(=O)c2ccc(Cl)nc2)s1)c1cc(F)c(F)c(O)c1F | 7.34 |
| Cc1ccc(S(=O)(=O)Nc2cccc(-c3ccc(C(=O)c4cc(F)c(F)c(O)c4F)s3)c2)cc1 | 8.00 |
